Test: in vivo
Conditions: Swiss Webster, mouse, iv
metric: MTD (mg/kg)
The answer is to be given in mg/kg; state only the numeric part.

// query Output MTD of C[As](C)SC[C@H](NC(=O)CC[C@H](N)C(=O)O)C(=O)NCC(=O)O
// result 350

====

Assay: in vivo
Settings: Swiss Webster, mouse
metric: LD50 (mg/kg)
The answer is to be given in mg/kg; state only the numeric part.

// query Output LD50 of C[As](C)SC[C@H](NC(=O)CC[C@H](N)C(=O)O)C(=O)NCC(=O)O [SGLU1, S-(dimethylarsino) glutathione]
// result 350

Attribution: patent US6995188B2
